Values compiled from patent US20220112295A1.

Biological target: T1, native cynomolgus monkey CD30L on activated T cells (cynomolgus monkey, UniProt A0A7N9CVX7 1-234)
T1 construct: whole, on cells; also called cynomologous CD30L
T1 sequence: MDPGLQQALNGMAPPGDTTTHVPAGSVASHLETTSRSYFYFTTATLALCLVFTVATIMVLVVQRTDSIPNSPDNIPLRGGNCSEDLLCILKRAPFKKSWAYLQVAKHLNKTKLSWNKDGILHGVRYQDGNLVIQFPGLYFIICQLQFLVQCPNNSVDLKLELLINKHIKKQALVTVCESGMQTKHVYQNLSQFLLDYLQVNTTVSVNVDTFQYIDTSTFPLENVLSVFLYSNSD
Experiment: FACS, native cyno CD30L on activated cynomolgus T cells
pEC50: −log10 of the molar value.
Endpoint label: pEC50

INSERT INTO results (binder, endpoint_label, number) VALUES
  ('Antibody D (antibody, V domains shown, also called mAb D) VH: QVQLQESGPGLVKPSETLSLTCTVSGGSISSYSWSWIRQPAGKGLEWIGRTSTSGRNNYNPSLKSRVTMSVDTSKNQFSLKLNSVTAADTAVYYCARDFTIAARRYYYYGMDVWGQGTTVTVSS VL: QSALTQPASVSGSPGQSITISCTGTSSDIGLYNYVSWYQQHPGKAPKLIIYEVINRPSGVSNRFSGSESGNTASLTISGLQAEDEANYYCSSYTSSSTWVFGGGTKLTVL', 'pEC50', 8.57);
